Source listed as PubChem BioAssay (NCI).

Test system: MDA-MB-468 breast
Test: NCI-60 one-dose screen, 48 h
Details: 10 µM unless noted
Compounds without any hit were thinned out: in the full panel of roughly 83,000, 20% have a hit. Calls of active or inactive are those of the source. Rule for the calls: active = growth percent below 10; inactive = the rest.
Your answer must be one of the following: active, inactive

O=C(Cn1cncn1)Nc1ccc(-c2nc3ccccc3s2)cc1 ... active
O=C(Nc1ccc(Cl)cc1)c1cc(-c2ccc(Cl)cc2)c2sc(=O)[nH]c2n1 ... active
C#Cc1cccc(NC(=O)Nc2ccccc2NC(=O)CCl)c1 ... active
CC1(C)CC(=O)c2c(ccc(C(=O)C[C@@H](N)CO)c2N)O1 ... active
O=C1CC(C(F)(F)F)=NN1C(=O)c1nn(-c2ccc(Cl)cc2)cc1O ... inactive

Task: Hi team, can someone confirm the assay call for O=C1/C(=C/c2ccc3c(c2)OCO3)SC(=S)N1C1c2ccccc2Oc2ccccc21 ?
Result: inactive

Task: Field entry: Nc1c(C(=O)Nc2ccncc2)sc2nc3c(cc12)CCCCC3
Result: inactive

Task: Field entry: CN1C[C@@H](c2ccc(Cl)cc2)[C@]2(NC(=S)N(c3ccccc3)C2=O)[C@@]12C(=O)NC1C=CC(Br)=C[C@H]12 (stereo not given in full)
Result: inactive

Task: Field entry: CCC1=CC2CN(C1)Cc1c([nH]c3ccccc13)[C@@](C(=O)OC)(c1cc3c(cc1OC)N(C)[C@H]1[C@@](O)(C(=O)OC)[C@H](OC(C)=O)[C@]4(CC)C=CCN5CC[C@]31[C@@H]54)C2 (stereo not given in full)
Result: inactive

Task: Field entry: COc1cc(-c2ncn(/C=C\c3nnco3)n2)cc(C(F)(F)F)c1
Result: active

Task: Field entry: Nc1c2c(nc3ccc(Br)cc13)CC(c1ccccc1)CC2=O (stereo not given)
Result: active

Task: Field entry: O=C(/C=C1\C(=O)N(Cc2ccc([N+](=O)[O-])cc2)c2ccccc21)c1ccc(OCCN2CCCCC2)cc1
Result: active

Task: Field entry: COC(=O)c1ccc2c(c1)Oc1ccc(Cl)cc1-c1cc(C)nn1-2
Result: inactive

Task: Field entry: Cc1ccc2cccc(Oc3ccc(Nc4ncnc5onc(-c6ccccc6)c45)cc3)c2n1
Result: inactive

Task: Field entry: CN(C)c1nc(N)c(N=O)c(N)n1
Result: inactive

Task: Field entry: O=C1OC2(c3ccccc31)c1ccccc1-c1ccccc12
Result: inactive

Task: Field entry: CC(=O)c1cc(O)c2ccccc2c1O
Result: inactive

Task: Field entry: CC(=O)c1cc2c(N)c(C(=O)Nc3ccccc3)sc2nc1C
Result: inactive

Task: Field entry: O=C1c2c(c3c4cc(Br)ccc4[nH]c3c3ccc4ccccc4c23)C(=O)N1CCO
Result: inactive

Task: Field entry: COc1ccc(Cn2cc3c(c2-c2ccccc2)CCCc2cnoc2-3)cc1[N+](=O)[O-]
Result: inactive

====

System: MDA-MB-468 breast
Test: NCI-60 one-dose screen, 48 h (100 = growth as untreated, 0 = no growth, -100 = all killed)
Settings: 10 µM unless noted
About 83,000 compounds went through this panel and 20% of them were active in at least one assay; those are over-represented in the sample as a whole.
Decide using growth alone. Strictly below 90%: 1. Equal to or above 90%: 0.

Before answering, review these 5 worked examples.
C=C[C@@]1(C)CC(=O)[C@@H](C(C)(C)c2cn(C)c3ccc(Br)cc23)C[C@@H]1O[Si](C)(C)C(C)(C)C ... 0
COc1cccc(-c2cnco2)c1OCc1c(C)c(COc2c(OC)cccc2-c2cnco2)c(C)c(COc2c(OC)cccc2-c2cnco2)c1C ... 1
CC1(C)CC[C@]2(C(=O)N3CCNCC3)CC[C@]3(C)C(=CC[C@@H]4[C@@]5(C)CCC(=O)C(C)(C)[C@@H]5CC[C@]43C)[C@@H]2C1 ... 0
Oc1ccc(CCl)c2cccnc12 ... 1
N#Cc1c(-c2ccccc2)cc(-c2ccccc2)n(CC(=O)NO)c1=O ... 1

Task: Item Clc1ccccc1/C=C/c1nn2c(-c3ccncc3)nnc2s1 : growth beneath 90%, strictly?
Result: 0

Task: Field entry: CC/C(Cc1ccccc1)=C(\c1ccc(OCCN2CCCC2)cc1)c1ccc(OC(C)=O)cc1
Result: 1

Task: Field entry: O=C(NNc1ccccc1)OCc1ccccc1
Result: 0

====

Catalogue of growth values
Tested on: MDA-MB-468 breast
Assay: NCI-60 one-dose screen, 48 h (100 = growth as untreated, 0 = no growth, -100 = all killed)
Conditions: 10 µM unless noted
This is part of a sample that, as a whole, favours compounds with a hit. Of some 83,000 tested, about 20% had one in any assay. The source made the active and inactive calls. How the source made its calls: active means growth percent below 10; inactive means the rest.

Oc1ccc(CSc2nnc(-c3ccccc3)n2-c2ccccc2)c2cccnc12 ... -2.77% (active)
CCOC(=O)c1c(C)oc(C)c(C(=O)OCC)c1=O ... 103% (inactive)
CN(C)CCN1C(=O)c2c(c3c4ccccc4n4c3c3c2c2ccccc2n3C2CC(O)C(O)C4(C)O2)C1=O (centres undefined) ... 12.8% (inactive)
CCOC(=O)c1cnc2ccc(Br)cc2c1Nc1cccc(S(N)(=O)=O)c1 ... 106% (inactive)
COc1ccc2nc(Cl)c(Cn3nnc(Cc4ccccc4)n3)cc2c1 ... 29.9% (inactive)

Task: Give the reported growth for Cn1nc(C(F)(F)F)cc1-c1cc(Cl)c(OCc2ccc(Cl)cc2)c(-c2ccc(Cl)c(C(F)(F)F)c2)c1O (system: MDA-MB-468 breast).
Result: -16.1% (active)

Task: Field entry: CC(=O)Nc1nc2c(c(N)c1C#N)C(c1cccc(Cl)c1)C1=C(CCCC1=O)N2c1sc2c(c1C#N)CCCC2 (centres undefined)
Result: 47.7% (inactive)

Task: Field entry: O=C(OCc1ccc2c(Cl)cc(Cl)c(O)c2n1)N1CCN(C(=O)c2cc3ccccc3[nH]2)CC1
Result: 10.3% (inactive)

Task: Field entry: CCCCOc1ccc(/C=C2/SC(N3CCOCC3)=NC2=O)cc1OCC
Result: 97.8% (inactive)

Task: Field entry: COC(=O)c1cc(-c2ccc(S(C)(=O)=O)cc2)[nH]c1N/N=C/c1c(Cl)cccc1Cl
Result: 15.7% (inactive)

Task: Field entry: c1ccc2c(c1)oc1cc3c(cc12)nnc1cccn13
Result: 108% (inactive)

Task: Field entry: O=C(NC1CCNCC1)c1[nH]ncc1NC(=O)c1c(Cl)cccc1Cl
Result: -37.2% (active)

Task: Field entry: COc1ccc(N/C=C/C2=[N+](C)c3ccccc3C2(C)C)c(OC)c1
Result: 80.5% (inactive)

Task: Field entry: CCOC(=O)c1c2c(c(C)n1Cc1ccc(OC)cc1)-c1nc(N)ncc1CC2
Result: 107% (inactive)

Task: Field entry: COc1cc(/C=C2\C(=O)N(CC(O)COc3cc(O)c4c(=O)cc(-c5ccccc5)oc4c3)c3ccccc32)cc(OC)c1O (centres undefined)
Result: 74.3% (inactive)

Task: Field entry: CN(C)CCCNc1c2ccc(Cl)cc2nc2c1oc1ccc(Cl)cc12
Result: 36.4% (inactive)

Task: Field entry: CN1CCN(c2nc(-c3csc(-c4ccccc4)n3)cc3ccccc23)CC1
Result: -71.9% (active)

Task: Field entry: CC1=NN(c2ccc(S(=O)(=O)O)cc2Cl)C(=O)C1
Result: 107% (inactive)

Task: Field entry: COC1=C(OC)C(=O)C(CCCCCCCCCCO)=C(C)C1=O
Result: -34.8% (active)

Task: Field entry: O=C(Cn1cc(CN2C(=O)c3ccccc3S2(=O)=O)nn1)Nc1ccc([N+](=O)[O-])cc1Cl
Result: 103% (inactive)

Task: Field entry: Nc1nc(N)c2c(n1)NC(c1cccc(Nc3ccnc4cc(C(F)(F)F)ccc34)c1)CC(c1ccc(Br)cc1)=N2 (centres undefined)
Result: 41.9% (inactive)

Task: Field entry: Cc1nc2ccccc2c(/C=C/c2ccc(C(F)(F)F)cc2)c1C(=O)/C=C/c1ccccc1
Result: -51% (active)

Task: Field entry: COc1cc(C(=O)c2c(-c3ccccc3)oc3c(OC)cccc23)cc(OC)c1OC
Result: 18.4% (inactive)

Task: Field entry: CCN(CC)c1ccc(/C=N/NC(=O)C[N+](C)(C)C)cc1
Result: 112% (inactive)

Task: Field entry: O=c1cc(C(F)(F)F)c2cc(-c3cc4ccccc4c(=O)o3)c(O)cc2o1
Result: 61.4% (inactive)

====

Test system: CAKI-1 renal
Assay: NCI-60 one-dose screen, 48 h
Details: 10 µM
This is part of a sample that, as a whole, favours compounds with a hit. Of some 83,000 tested, about 20% had one in any assay. Active and inactive are the calls of the source. The calls were made as follows: active = growth percent below 10; inactive = the rest.
Your answer must be one of the following: yes (1) = active, no (0) = inactive

Before answering, review these 8 worked examples.
COc1ccc(NCc2cn(-c3ccc(C(=O)O)cc3)nc2-c2ccc(F)cc2)cc1C(F)(F)F ... no (0)
O=C(c1ccc(Cl)cc1)C(c1c[nH]c2ccccc12)c1c[nH]c2ccccc12 ... yes (1)
COc1cc(C2CC(c3ccccc3)=Nc3c(N)nc(N)nc3N2)ccc1Oc1nc(NCCO)nc(N2CCOCC2)n1 (centres undefined) ... no (0)
C#C[C@]1(O)CC[C@H]2[C@@H]3CC=C4c5sc(Nc6ccc(C(F)(F)F)cn6)nc5CC[C@]4(C)[C@H]3CC[C@@]21C ... yes (1)
COc1ccccc1-n1cc(C#N)c(N)c1C(=O)c1ccc(Cl)cc1Cl ... no (0)
Cc1cc(N=C2NC(=O)/C(=C/c3cc(C(C)(C)C)c(O)c(C(C)(C)C)c3)S2)n[nH]1 ... no (0)
Cc1ccc2c(c1)C(=O)/C(=C/c1c[nH]c3ccccc13)S2 ... no (0)
O=C1NC2C=CC=CC2/C1=C1/SC(=S)N(C2CC(=O)N(c3ccc(Br)cc3)C2=O)C1=O (centres undefined) ... no (0)

Now, please, on to the next molecule.
Task: Hi team, can someone confirm the assay call for COc1ccc(Cc2nn(CC(=O)N/N=C/c3ccc([N+](=O)[O-])cc3)c(=O)c3c(C)noc23)cc1 ?
Result: no (0)
